test system: NCI-H2795 (Mesothelioma); experiment: Bliss excess, mean over the matrix (fraction); higher = more synergy;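 note: after 72 h of two-drug dosing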
PROPERTY LABEL: Bliss excess
No unit in the answer, only the number.

Example entries and their recorded answers appear below.
{"MOLECULE": "CN(CCO)CC[C@H](CSc1ccccc1)Nc1ccc(S(=O)(=O)NC(=O)c2ccc(N3CCC([C@@H](O)c4ccccc4-c4ccc(Cl)cc4)CC3)cc2)cc1S(=O)(=O)C(F)(F)F [AZD4320] + CN(C)CCCOc1ccc(-c2ccc3ncc4c(c3c2)n(C2CCOCC2)c(=O)n4C)cn1 [AZD0156] (first compound max 1 µM, 7x7, partner max 1 µM)", "SYSTEM UNDER TEST": "NCI-H2795 (Mesothelioma)", "Bliss excess": -0.0596}
{"MOLECULE": "CC1(C)CCC(CN2CCN(c3ccc(C(=O)NS(=O)(=O)c4ccc(NCC5CCOCC5)c([N+](=O)[O-])c4)c(Oc4cnc5[nH]ccc5c4)c3)CC2)=C(c2ccc(Cl)cc2)C1 [Venetoclax] + C[C@@H](Nc1cc(F)cc(F)c1)c1cc(C(=O)N(C)C)cc2c(=O)cc(N3CCOCC3)oc12 [AZD8186] (first compound max 1 µM, 7x7, partner max 3 µM)", "SYSTEM UNDER TEST": "NCI-H2795 (Mesothelioma)", "Bliss excess": -0.0218}
{"MOLECULE": "C[C@@H](Nc1cc(F)cc(F)c1)c1cc(C(=O)N(C)C)cc2c(=O)cc(N3CCOCC3)oc12 [AZD8186] + C1CN(CCC1(C(=O)N[C@@H](CCO)C2=CC=C(C=C2)Cl)N)C3=NC=NC4=C3C=CN4 [AZD5363] (first compound max 10 µM, 7x7, partner max 10 µM)", "SYSTEM UNDER TEST": "NCI-H2795 (Mesothelioma)", "Bliss excess": -0.106}

Consider the molecule shown here: COc1nnc2ccc(N3CCC(c4ccc(OCCN5CCN(C)C(=O)[C@H]5C)cc4)CC3)nn12 [AZD5153] + Cn1cnc2c(F)c(Nc3ccc(Br)cc3Cl)c(C(=O)NOCCO)cc21 [Selumetinib] (first compound max 1 µM, 7x7, partner max 10 µM) What is its recorded Bliss excess?
-0.03

Reported Bliss excess, molecule COc1cccc(OCCCN)c1-c1cc(Nc2cnc(C#N)cn2)n[nH]1 [Prexasertib] + O=C(c1cc(Cc2n[nH]c(=O)c3ccccc23)ccc1F)N1CCN(C(=O)C2CC2)CC1 [Olaparib] (first compound max 1 µM, 7x7, partner max 10 µM) : ____
-0.024

Consider the molecule shown here: CC1(C)CCC(CN2CCN(c3ccc(C(=O)NS(=O)(=O)c4ccc(NCC5CCOCC5)c([N+](=O)[O-])c4)c(Oc4cnc5[nH]ccc5c4)c3)CC2)=C(c2ccc(Cl)cc2)C1 [Venetoclax] + COc1cc(Nc2ncc3c(n2)-c2ccc(Cl)cc2C(c2c(F)cccc2OC)=NC3)ccc1C(=O)O [Alisertib] (first compound max 1 µM, 7x7, partner max 10 µM) What is its recorded Bliss excess?
-0.0656

Sample Cc1c2c(nn1C)CSCc1cc(n(C)n1)CSc1cc(c3ccccc3c1)OCCCc1c(C(=O)O)n(C)c3c-2c(Cl)ccc13 [AZD5991] + C1CN(CCC1(C(=O)N[C@@H](CCO)C2=CC=C(C=C2)Cl)N)C3=NC=NC4=C3C=CN4 [Capivasertib] (first compound max 1 µM, 7x7, partner max 3 µM) — what was its Bliss excess?
0.119
